test system: TK-10; assay: Growth inhibition of human TK-10 cells assessed as cell growth at 0.01 uM incubated for 48 hrs by sulforhodamine B assay relative to control; type: functional; conditions: read-out: Activity
Readout Type: growth at 0.01 µM (%)
Give bare numbers, in %.

Some solved cases for reference:
INSERT INTO measurements (compound_structure, test_system, quantitative_result) VALUES
  ('COc1cccc(NC(=O)c2sc3nc4c(cc3c2N)CN(Cc2ccccc2)CC4)c1', 'TK-10', 104),
  ('Cc1cccc(NC(=O)c2sc3nc4c(cc3c2N)C(=O)CCC4)c1', 'TK-10', 91),
  ('CCc1ccccc1NC(=O)c1sc2nc3c(cc2c1N)C(=O)CCC3', 'TK-10', 93),
  ('CN1CCc2nc3sc(C(N)=O)c(N)c3c(-c3cccs3)c2C1', 'TK-10', 101),
  ('Cc1cc(C)c(NC(=O)c2sc3nc4c(cc3c2N)CN(Cc2ccccc2)CC4)c(C)c1', 'TK-10', 103);

Provide growth at 0.01 µM for all items below, preserving their order.
1. Cc1ccc(NC(=O)c2sc3nc4c(cc3c2N)C(=O)CCC4)cc1C
2. Nc1c(C(=O)Nc2ccccc2)sc2nc3c(cc12)CN(Cc1ccccc1)CC3

1: 96; 2: 93

* * *

test system: MOLT-4; assay: Growth inhibition of human MOLT-4 cells assessed as cell growth at 10 uM incubated for 48 hrs by sulforhodamine B assay relative to control; assay type: functional; details: read-out: Activity
Readout Type: growth at 10 µM

Worked examples follow.
INSERT INTO measurements (compound_structure, readout_type, result) VALUES
  ('Cc1cc(C)c(NC(=O)c2sc3nc4c(cc3c2N)CN(Cc2ccccc2)CC4)c(C)c1', 'growth at 10 µM', '21%'),
  ('COc1ccc(S(=O)(=O)n2ccc(-c3ccc4c(c3)CCC(C)(C)O4)n2)cc1OC', 'growth at 10 µM', '63.8%'),
  ('Cc1cccc(NC(=O)c2sc3nc4c(cc3c2N)CN(Cc2ccccc2)CC4)c1', 'growth at 10 µM', '103%');

Could I get growth at 10 µM for every one of these entries?
1. CCc1ccccc1NC(=O)c1sc2nc3c(cc2c1N)C(=O)CCC3
2. COc1cccc(NC(=O)c2sc3nc4c(cc3c2N)CN(Cc2ccccc2)CC4)c1
3. CC1(C)CCc2cc(-c3ccn(S(=O)(=O)c4ccccc4)n3)ccc2O1
4. CC1(C)CCc2cc(-c3ccn(S(=O)(=O)c4ccc(C(F)(F)F)cc4)n3)ccc2O1
5. CC(=O)c1ccc2c(N)c(C(=O)Nc3ccccc3)sc2n1

1. 24.4%
2. 69%
3. 61.5%
4. 78.7%
5. 107%

For every item in the list below, what is its measured growth at 10 µM?
1. CC1(C)CCc2cc(-c3ccn(S(=O)(=O)c4ccc(Cl)cc4Cl)n3)ccc2O1
2. CC(=O)Nc1ccc(S(=O)(=O)n2ccc(-c3ccc4c(c3)CCC(C)(C)O4)n2)cc1

1: 84.8%; 2: 50.7%

* * *

system: OVCAR-3; test: Growth inhibition of human OVCAR-3 cells assessed as cell growth at 10 uM incubated for 48 hrs by sulforhodamine B assay relative to control; assay type: functional; settings: read-out: Activity
Readout Type: growth at 10 µM (%)
Answers are plain numbers, in %.

INSERT INTO results (compound_structure, test_system, unit_of_measurement, quantitative_result) VALUES
  ('CN1CCc2nc3sc(C(N)=O)c(N)c3c(-c3cccs3)c2C1', 'OVCAR-3', '%', -22);

Dear reader, for each entry below, please note its growth at 10 µM.
1. CCc1cccc(C)c1NC(=O)c1sc2nc3c(cc2c1N)C(=O)CCC3
2. CC1(C)CCc2cc(-c3ccn(S(=O)(=O)c4ccccc4)n3)ccc2O1
3. CC(C)N1CCc2nc3sc(C(=O)Nc4ccccc4)c(N)c3cc2C1
4. Nc1c(C(=O)Nc2ccccc2)sc2nc3c(cc12)CN(Cc1ccccc1)CC3

1: -26; 2: 81.4; 3: 108; 4: 52

I have 4 compounds here; please give me growth at 10 µM for each one.
1. Cc1cccc(NC(=O)c2sc3nc4c(cc3c2N)CN(Cc2ccccc2)CC4)c1
2. CC(=O)c1cccc(NC(=O)c2sc3nc4c(cc3c2N)C(=O)CCC4)c1
3. Cc1cc(C)cc(S(=O)(=O)n2ccc(-c3ccc4c(c3)CCC(C)(C)O4)n2)c1
4. CC1(C)CCc2cc(-c3ccn(S(=O)(=O)c4ccc(C(C)(C)C)cc4)n3)ccc2O1

1: 116; 2: 120; 3: 87.8; 4: 91.8

Quick note, growth at 10 µM for COc1ccc(S(=O)(=O)n2ccc(-c3ccc4c(c3)CCC(C)(C)O4)n2)cc1 landed at 81.2
